Taken from the supplement of paper PMC10567573.

B1: SPSB1 (parent)
chain: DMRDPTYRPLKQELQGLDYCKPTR

# Variants of: B1
# method_summary: protein stability index of a GFP-peptide fusion (GPS, HEK-293T) (PSI 1-6); higher = more stable;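 note: lentivirally expressed fusions sorted by FACS into six bins by GFP to DsRed ratio, PSI derived from sequencing read proportions per bin multiplied by bin number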
# experimental_setup: c terminus: a fixed tail appended
metric_name: protein stability index
Lab note: record just the number, no unit beside it.

Need protein stability index, item K21E
2.76

Another: L10F
3.56

Another: Y19I
3.78

Another: R24E
4.56

Another: T6I
3.63

Another: P5G
3.19

Another: Q15N
3.52

Another: R8N
3.46

Another: K21D
1.74

Another: P9R
2.25

Another: G16D
3.34

Another: L17Q
4.51

Another: M2G
3.78

Another: K21G
3.66

Another: T23R
4.3

Another: D1P
3.82

Another: K21H
2.46

Another: P9C
2.52

Another: E13Q
2.98

Another: D4K
3.13

Another: Q15P
2.67

Another: M2K
3.13

Another: R24V
1.92

Another: K11F
3.24

Another: P22E
4.79

Another: E13T
3.18

Another: C20W
2.15

Another: E13G
3.59

Another: T23P
4.33

Another: P5C
3.21

Another: D18T
3.66

Another: L17Y
3.7

Another: L14E
2.43

Another: E13M
2.48

Another: R24L
1.6

Another: P5Q
3.55

Another: E13C
2.91

Another: G16F
2.24

Another: G16S
3.32

Another: K21I
1.87

Another: Y19D
4.37

Another: Y7E
3.86

Another: L10D
3.76

Another: Q12K
2.94

Another: R3L
2.9

Another: L10I
3.67
